- target-desc: Proto-oncogene Wnt-3 (Homo sapiens, UniProt P56703)
- Sequence (P56703 whole entry): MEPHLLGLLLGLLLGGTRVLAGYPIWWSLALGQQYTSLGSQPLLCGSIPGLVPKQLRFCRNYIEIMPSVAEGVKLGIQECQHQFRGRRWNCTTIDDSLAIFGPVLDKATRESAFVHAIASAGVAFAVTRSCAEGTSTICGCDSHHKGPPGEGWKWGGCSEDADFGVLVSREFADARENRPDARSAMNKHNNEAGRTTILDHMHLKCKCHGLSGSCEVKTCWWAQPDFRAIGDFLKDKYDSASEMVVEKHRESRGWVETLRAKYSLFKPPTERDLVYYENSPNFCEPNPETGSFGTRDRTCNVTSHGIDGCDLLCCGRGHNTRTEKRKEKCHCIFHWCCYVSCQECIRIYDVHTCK
- experiment-notes: Inhibition of Wnt3 expressed in mouse L-cells assessed as inhibition of Wnt/catanin signaling pathway by luciferase reporter gene assay
pEC50: −log10 of the molar value.
endpoint: pEC50

• O=C(Nc1ccc(Cl)cc1)c1ccc(-n2c(O)c3c(c2O)[C@H]2C=C[C@@H]3C2)cc1 = 5.52
• Cc1ccc2cccnc2c1NC(=O)c1ccc(-n2c(O)c3c(c2O)[C@H]2C=C[C@@H]3C2)cc1 = 6.10
• O=C(Nc1cccc2cccnc12)c1ccc(-n2c(O)c3c(c2O)[C@H]2C=C[C@@H]3C2)cc1Cl = 6.00
• Cc1ccc2cccnc2c1NC(=O)[C@H]1CC[C@H](CN2C(=O)[C@@H]3[C@H](C2=O)[C@@H]2C=C[C@H]3C2)CC1 = 5.00
